Molecular target: T1, human GPC3-His protein (human, UniProt P51654 25-559)
T1 construct: Bought protein; also called human GPC3 protein; not shown: His tag
Assay: ELISA, coated human GPC3, antibody 0.0001 nM
ENDPOINT_NAME: OD450 nm (OD450)
Numbers only; they are read as OD450.

Need OD450 nm of F1.92.17 human-murine chimeric antibody (antibody, human IgG1, kappa, V domains shown) VH: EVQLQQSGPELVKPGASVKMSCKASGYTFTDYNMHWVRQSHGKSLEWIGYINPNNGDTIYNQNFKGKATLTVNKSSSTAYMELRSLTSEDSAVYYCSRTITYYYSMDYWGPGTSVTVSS VL: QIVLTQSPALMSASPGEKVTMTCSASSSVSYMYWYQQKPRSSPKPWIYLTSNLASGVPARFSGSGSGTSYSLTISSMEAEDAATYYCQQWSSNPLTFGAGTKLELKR , thanks.
0.08

Need OD450 nm of F1.115.8 human-murine chimeric antibody (antibody, human IgG1, kappa, V domains shown) VH: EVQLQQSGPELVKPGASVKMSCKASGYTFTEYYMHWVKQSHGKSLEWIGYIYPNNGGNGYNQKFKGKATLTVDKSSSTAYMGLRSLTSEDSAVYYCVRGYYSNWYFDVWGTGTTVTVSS VL: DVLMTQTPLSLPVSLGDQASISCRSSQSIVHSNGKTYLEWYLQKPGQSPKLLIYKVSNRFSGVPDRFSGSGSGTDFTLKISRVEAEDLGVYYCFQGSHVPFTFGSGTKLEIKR , thanks.
0.09

Need OD450 nm of F1.145.22 human-murine chimeric antibody (antibody, human IgG1, kappa, V domains shown) VH: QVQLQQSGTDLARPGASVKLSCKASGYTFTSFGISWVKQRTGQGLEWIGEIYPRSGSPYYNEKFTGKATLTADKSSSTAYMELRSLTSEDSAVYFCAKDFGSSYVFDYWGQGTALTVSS VL: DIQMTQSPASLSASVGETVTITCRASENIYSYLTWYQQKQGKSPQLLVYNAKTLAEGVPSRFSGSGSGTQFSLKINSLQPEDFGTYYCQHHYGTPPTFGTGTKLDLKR , thanks.
0.09

Hello, the source for this data is patent US20260116991A1, in case you need it.
